test: Solubility in phosphate buffer at pH 5.5; type: physicochemical
ENDPOINT_LABEL: solubility (µg/mL)

> print(dat)
                            chemical.string  endpoint.label  value.observed
1  CCCCn1c(=O)c(NC(=O)Nc2c(C(C)C)ccc(N)c2C(C)C)c(-c2cccc(OCCCO)c2)c2cccnc21.Cl      solubility              19
2  CCCCn1c(=O)c(NC(=O)Nc2c(C(C)C)cc(CN(CC)CC)cc2C(C)C)c(-c2cccc(OC)c2)c2cccnc21.Cl      solubility            1000
3  CCCCn1c(=O)c(NC(=O)Nc2c(C(C)C)ccnc2C(C)C)c(-c2cccc(OC)c2)c2cccnc21.Cl      solubility              19
4  CCCCn1c(=O)c(NC(=O)Nc2c(C(C)C)cc(CN)cc2C(C)C)c(-c2cccc(OC)c2)c2cccnc21.Cl      solubility              23
5  CCCCn1c(=O)c(NC(=O)Nc2c(C(C)C)cc(N)cc2C(C)C)c(-c2cccc(OCCCO)c2)c2cccnc21.Cl      solubility              14

I = CCCCn1c(=O)c(NC(=O)Nc2c(C(C)C)cc(N)cc2C(C)C)c(-c2cccc(OCCCN3CCCC3)c2)c2cccnc21.Cl.Cl
II = CCCCn1c(=O)c(NC(=O)Nc2c(C(C)C)cc(N)cc2C(C)C)c(-c2cccc(OCCCCO)c2)c2cccnc21.Cl
III = CCCCn1c(=O)c(NC(=O)Nc2c(C(C)C)cc(N)cc2C(C)C)c(-c2cccc(OCCO)c2)c2cccnc21.Cl
Incoming: Descending sort on solubility required. Answer format: list of labels, ordered as asked.
Outgoing: I, III, II

1 = CCCCn1c(=O)c(NC(=O)Nc2c(C(C)C)cc(N)cc2C(C)C)c(-c2cccc(OCCCN3CCCCC3)c2)c2cccnc21.Cl.Cl
2 = CCCCn1c(=O)c(NC(=O)Nc2c(C(C)C)ccc(N)c2C(C)C)c(-c2cccc(OC)c2)c2cccnc21.Cl
3 = CCCCn1c(=O)c(NC(=O)Nc2c(C(C)C)cc(N)cc2C(C)C)c(-c2cccc(OCCCN(CC)CC)c2)c2cccnc21.Cl.Cl
Incoming: Descending sort on solubility required. Answer format: list of labels, ordered as asked.
Outgoing: 3, 1, 2
(3: 690 µg/mL, 1: 180 µg/mL, 2: 1 µg/mL)

----------
experiment: Cmax in rabbit administered with 1.0 mg/kg/day for 21 days; format: ADME, organism-based, Oryctolagus cuniculus; set-up: dose 1 mg/kg/day; settings: in vivo
ENDPOINT_LABEL: Cmax (ng/mL)
Express your answer in ng/mL, writing the number without its unit.

Incoming: Which Cmax is reported for this molecule? `CCCCn1c(=O)c(NC(=O)Nc2c(C(C)C)cc(N)cc2C(C)C)c(-c2cccc(OCCCO)c2)c2cccnc21.Cl`
Outgoing: 16

----------
molecular target: Sterol O-acyltransferase 1 (Rattus norvegicus); assay: Inhibitory activity against ACAT in rat macrophages
Sequence (O70536 whole entry): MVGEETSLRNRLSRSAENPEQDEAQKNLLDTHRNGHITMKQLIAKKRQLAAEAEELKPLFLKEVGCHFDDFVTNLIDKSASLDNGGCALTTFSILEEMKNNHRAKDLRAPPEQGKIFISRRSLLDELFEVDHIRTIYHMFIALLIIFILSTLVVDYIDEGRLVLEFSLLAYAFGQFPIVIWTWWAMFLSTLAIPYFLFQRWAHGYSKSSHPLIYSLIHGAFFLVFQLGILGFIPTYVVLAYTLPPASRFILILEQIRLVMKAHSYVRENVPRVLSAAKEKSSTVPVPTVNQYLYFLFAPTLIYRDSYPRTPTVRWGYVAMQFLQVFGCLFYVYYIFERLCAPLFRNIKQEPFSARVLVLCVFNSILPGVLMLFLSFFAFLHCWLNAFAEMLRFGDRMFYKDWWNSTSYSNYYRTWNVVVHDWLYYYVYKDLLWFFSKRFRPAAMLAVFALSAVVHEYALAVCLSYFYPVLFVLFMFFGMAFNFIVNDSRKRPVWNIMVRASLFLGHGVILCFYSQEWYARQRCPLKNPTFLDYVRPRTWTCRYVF
ENDPOINT_LABEL: IC50 (nM)

As a guide, the following entries are already answered.
> print(dat)
                            chemical.string  endpoint.unit  value.observed
1  CCCCn1c(=O)c(NC(=O)Nc2c(C(C)C)cc(N)cc2C(C)C)c(-c2cccc(OCCCN(CC)CC)c2)c2cccnc21.Cl.Cl             nM             452
2  CCCCn1c(=O)c(NC(=O)Nc2c(C(C)C)ccc(N)c2C(C)C)c(-c2cccc(OC)c2)c2cccnc21.Cl             nM              14

a = CCCCn1c(=O)c(NC(=O)Nc2c(C(C)C)ccnc2C(C)C)c(-c2cccc(OC)c2)c2cccnc21.Cl
b = CCCCn1c(=O)c(NC(=O)Nc2c(C(C)C)cc(CN(CC)CC)cc2C(C)C)c(-c2cccc(OC)c2)c2cccnc21.Cl
c = CCCCn1c(=O)c(NC(=O)Nc2c(C(C)C)ccc(N)c2C(C)C)c(-c2cccc(OCCCO)c2)c2cccnc21.Cl
d = CCCCn1c(=O)c(NC(=O)Nc2c(C(C)C)cc(CN)cc2C(C)C)c(-c2cccc(OC)c2)c2cccnc21.Cl
Incoming: Descending sort on IC50 required. Answer format: list of labels, ordered as asked.
Outgoing: b, d, c, a
(b: 680 nM, d: 382 nM, c: 43 nM, a: 5.4 nM)

----------
target: Sterol O-acyltransferase 1 (Rattus norvegicus); test: Inhibitory activity against ACAT in rat macrophages
ENDPOINT_LABEL: IC50 (nM)

> print(dat)
                            chemical.string  endpoint.label  value.observed
1  CCCCn1c(=O)c(NC(=O)Nc2c(C(C)C)cccc2C(C)C)c(-c2cccc(OC)c2)c2cccnc21            IC50              11
2  CCCCn1c(=O)c(NC(=O)Nc2c(C(C)C)cc(N)cc2C(C)C)c(-c2cccc(OCCCN3CCCC3)c2)c2cccnc21.Cl.Cl            IC50             427

1 = CCCCn1c(=O)c(NC(=O)Nc2c(C(C)C)cc(N)cc2C(C)C)c(-c2cccc(OCCCCO)c2)c2cccnc21.Cl
2 = CCCCn1c(=O)c(NC(=O)Nc2c(C(C)C)cc(N)cc2C(C)C)c(-c2cccc(OC)c2)c2cccnc21.Cl
Incoming: Quick check, higher IC50 between 1 and 2 ? Your answer should be the label attached to the chosen record.
Outgoing: 1
(1: 61 nM, 2: 8.3 nM)

A = CCCCn1c(=O)c(NC(=O)Nc2c(C(C)C)cc(N)cc2C(C)C)c(-c2cccc(OCCCN3CCCCC3)c2)c2cccnc21.Cl.Cl
B = CCCCn1c(=O)c(NC(=O)Nc2c(C(C)C)cc(N)cc2C(C)C)c(-c2cccc(OCCCO)c2)c2cccnc21.Cl
Incoming: I'm curious, which of these has a smaller IC50 number: A or B ? Your answer should be the label attached to the chosen record.
Outgoing: B
(B: 21 nM, A: 540 nM)

----------
assay: Solubility in phosphate buffer at pH 2.5; assay type: physicochemical
ENDPOINT_LABEL: solubility

As a guide, the following entries are already answered.
> print(dat)
                            chemical.string  value.observed
1  CCCCn1c(=O)c(NC(=O)Nc2c(C(C)C)cc(N)cc2C(C)C)c(-c2cccc(OCCCN3CCCC3)c2)c2cccnc21.Cl.Cl    > 1000 µg/mL
2  CCCCn1c(=O)c(NC(=O)Nc2c(C(C)C)cc(CN)cc2C(C)C)c(-c2cccc(OC)c2)c2cccnc21.Cl       220 µg/mL
3  CCCCn1c(=O)c(NC(=O)Nc2c(C(C)C)ccnc2C(C)C)c(-c2cccc(OC)c2)c2cccnc21.Cl    > 1000 µg/mL
4  CCCCn1c(=O)c(NC(=O)Nc2c(C(C)C)cc(CN(CC)CC)cc2C(C)C)c(-c2cccc(OC)c2)c2cccnc21.Cl    > 1000 µg/mL
5  CCCCn1c(=O)c(NC(=O)Nc2c(C(C)C)cc(N)cc2C(C)C)c(-c2cccc(OCCCN(CC)CC)c2)c2cccnc21.Cl.Cl    > 1000 µg/mL

Incoming: Which solubility is reported for this compound? `CCCCn1c(=O)c(NC(=O)Nc2c(C(C)C)ccc(N)c2C(C)C)c(-c2cccc(OC)c2)c2cccnc21.Cl`
Outgoing: 700 µg/mL

Incoming: # repeat for `CCCCn1c(=O)c(NC(=O)Nc2c(C(C)C)cc(N)cc2C(C)C)c(-c2cccc(OCCCO)c2)c2cccnc21.Cl`
Outgoing: > 1000 µg/mL

Incoming: # repeat for `CCCCn1c(=O)c(NC(=O)Nc2c(C(C)C)cc(N)cc2C(C)C)c(-c2cccc(OC)c2)c2cccnc21.Cl`
Outgoing: 22 µg/mL

Incoming: # repeat for `CCCCn1c(=O)c(NC(=O)Nc2c(C(C)C)cccc2C(C)C)c(-c2cccc(OC)c2)c2cccnc21`
Outgoing: < 1 µg/mL

Incoming: # repeat for `CCCCn1c(=O)c(NC(=O)Nc2c(C(C)C)cc(N)cc2C(C)C)c(-c2cccc(OCCCCO)c2)c2cccnc21.Cl`
Outgoing: 680 µg/mL

Incoming: # repeat for `CCCCn1c(=O)c(NC(=O)Nc2c(C(C)C)cc(N)cc2C(C)C)c(-c2cccc(OCCCN3CCCCC3)c2)c2cccnc21.Cl.Cl`
Outgoing: > 1000 µg/mL

Incoming: # repeat for `CCCCn1c(=O)c(NC(=O)Nc2c(C(C)C)ccc(N)c2C(C)C)c(-c2cccc(OCCCO)c2)c2cccnc21.Cl`
Outgoing: > 1000 µg/mL

Incoming: # repeat for `CCCCn1c(=O)c(NC(=O)Nc2c(C(C)C)cc(N)cc2C(C)C)c(-c2cccc(OCCO)c2)c2cccnc21.Cl`
Outgoing: > 1000 µg/mL

----------
assay: Solubility in phosphate buffer at pH 7.4; assay type: physicochemical
ENDPOINT_LABEL: solubility (µg/mL)

> print(dat)
                            chemical.string  endpoint.unit  value.observed
1  CCCCn1c(=O)c(NC(=O)Nc2c(C(C)C)ccc(N)c2C(C)C)c(-c2cccc(OCCCO)c2)c2cccnc21.Cl          µg/mL              17

1 = CCCCn1c(=O)c(NC(=O)Nc2c(C(C)C)cc(N)cc2C(C)C)c(-c2cccc(OCCCO)c2)c2cccnc21.Cl
2 = CCCCn1c(=O)c(NC(=O)Nc2c(C(C)C)cc(N)cc2C(C)C)c(-c2cccc(OCCCN3CCCCC3)c2)c2cccnc21.Cl.Cl
Incoming: Quick check, higher solubility between 1 and 2 ? Your answer should be the label attached to the chosen record.
Outgoing: 2
